- Study target: Full-length KDM5B enzyme (Homo sapiens)
- Construct: recombinant protein from baculovirus-transfected Sf21 cells: full-length KDM5B; MW=176.825 kDa; host or cells: baculovirus-transfected Sf21 insect cells
- Sequence (Q9UGL1 whole entry): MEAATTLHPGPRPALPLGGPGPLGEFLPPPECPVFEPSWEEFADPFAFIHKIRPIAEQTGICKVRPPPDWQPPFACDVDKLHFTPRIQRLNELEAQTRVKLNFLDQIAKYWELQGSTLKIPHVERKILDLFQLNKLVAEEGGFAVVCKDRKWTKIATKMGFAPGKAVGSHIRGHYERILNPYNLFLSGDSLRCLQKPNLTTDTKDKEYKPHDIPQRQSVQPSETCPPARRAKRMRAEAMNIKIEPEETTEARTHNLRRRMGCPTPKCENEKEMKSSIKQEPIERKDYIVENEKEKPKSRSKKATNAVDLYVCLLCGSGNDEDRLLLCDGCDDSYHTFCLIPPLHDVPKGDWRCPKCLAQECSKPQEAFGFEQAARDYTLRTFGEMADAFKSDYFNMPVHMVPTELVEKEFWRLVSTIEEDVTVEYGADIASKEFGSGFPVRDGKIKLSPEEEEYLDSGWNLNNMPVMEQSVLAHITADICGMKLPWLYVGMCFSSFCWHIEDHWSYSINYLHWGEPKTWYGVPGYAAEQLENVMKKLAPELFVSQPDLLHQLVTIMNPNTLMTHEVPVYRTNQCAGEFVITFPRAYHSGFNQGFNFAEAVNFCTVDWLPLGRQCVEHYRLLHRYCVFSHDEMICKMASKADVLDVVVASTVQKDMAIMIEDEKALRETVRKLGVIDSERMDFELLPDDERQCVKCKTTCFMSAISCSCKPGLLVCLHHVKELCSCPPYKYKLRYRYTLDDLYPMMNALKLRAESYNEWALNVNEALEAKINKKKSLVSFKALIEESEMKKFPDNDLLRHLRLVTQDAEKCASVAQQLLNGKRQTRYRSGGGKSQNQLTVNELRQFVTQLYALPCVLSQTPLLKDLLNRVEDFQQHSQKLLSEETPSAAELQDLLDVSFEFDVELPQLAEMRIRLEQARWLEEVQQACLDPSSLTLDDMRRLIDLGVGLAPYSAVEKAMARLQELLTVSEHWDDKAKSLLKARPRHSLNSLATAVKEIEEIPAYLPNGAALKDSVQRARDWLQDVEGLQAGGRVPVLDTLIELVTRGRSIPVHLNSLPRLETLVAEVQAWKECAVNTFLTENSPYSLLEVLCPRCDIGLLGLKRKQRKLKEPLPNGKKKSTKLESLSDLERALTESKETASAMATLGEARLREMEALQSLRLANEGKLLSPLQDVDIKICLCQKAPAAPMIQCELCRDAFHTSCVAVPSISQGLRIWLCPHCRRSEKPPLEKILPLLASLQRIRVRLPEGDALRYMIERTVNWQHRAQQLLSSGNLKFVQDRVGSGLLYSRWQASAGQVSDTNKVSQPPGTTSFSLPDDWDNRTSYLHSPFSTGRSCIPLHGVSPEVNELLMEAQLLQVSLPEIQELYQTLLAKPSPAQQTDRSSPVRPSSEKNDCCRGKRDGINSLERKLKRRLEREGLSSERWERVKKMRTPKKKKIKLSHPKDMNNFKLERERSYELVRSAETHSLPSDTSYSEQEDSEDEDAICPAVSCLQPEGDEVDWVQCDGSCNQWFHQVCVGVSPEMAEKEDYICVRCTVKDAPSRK
- Assay notes: KDM5B TR-FRET Enzyme Activity Assay (LANCE)
- Type: biochemical
- Test conditions: 5 nM full-length KDM5B, biotinylated H3K4Me3 peptide, 500 nM α-ketoglutarate; ten point titration 100000 nM to 5.08 nM; read-out: IC50
Classes based on IC50: one: < 20 µM; two: ≥ 20 µM and < 40 µM; three: ≥ 40 µM

compound="Cc1[nH]c2nc(CCCO)nn2c(=O)c1C(C)C [Example 7-37]" category=three
compound="Cc1[nH]c2nc(N)nn2c(=O)c1C(C)C [Example 7-16]" category=one
compound="Cc1nc2[nH]c(C3CCCC3)c(C)c(=O)n2n1 [Example 7-66]" category=two
compound="CCc1c(C)[nH]c2nc(C)nn2c1=O [Example 7-5]" category=two
compound="Cc1[nH]c2nc(-c3ccc(F)cc3)nn2c(=O)c1C(C)C [Example 7-24]" category=two
compound="CCOC(=O)c1[nH]c2nc(C)nn2c(=O)c1Cl [Example 7-13]" category=one
compound="Cc1nc2[nH]c(C3CCCCC3)c(C)c(=O)n2n1 [Example 7-67]" category=three
compound="CCc1cc(=O)n2nc(C)nc2[nH]1 [Example 7-12]" category=three
compound="CCCc1cc(=O)n2nc(C)nc2[nH]1 [Example 7-2]" category=three
compound="Cc1[nH]c2nc(C3CC3)nn2c(=O)c1C(C)C [Example 7-18]" category=three
compound="Cc1nc2[nH]c(-c3ccco3)cc(=O)n2n1 [Example 7-44]" category=two
compound="Cc1nc2[nH]c(C(F)(F)F)c(C)c(=O)n2n1 [Example 7-48]" category=two
compound="Cc1nc2[nH]c(Cc3ccccc3)cc(=O)n2n1 [Example 7-55]" category=three
compound="CCc1c(-c2ccn(C)n2)[nH]c2nc(C)nn2c1=O [Example 7-33]" category=one
compound="Cc1nc2[nH]c(-c3cccc(Cl)c3)cc(=O)n2n1 [Example 7-54]" category=one
compound="CCc1c(C)[nH]c2nc(C(=O)OC)nn2c1=O [Example 7-14]" category=two
compound="Cc1nc2[nH]c(-c3ccn(C)n3)cc(=O)n2n1 [Example 7-36]" category=two
compound="Cc1[nH]c2nc(-c3ccc(C(F)(F)F)cc3)nn2c(=O)c1C(C)C [Example 7-25]" category=three
compound="Cc1nc2[nH]c(C)c(F)c(=O)n2n1 [Example 7-50]" category=three
compound="Cc1[nH]c2nc(Br)nn2c(=O)c1C(C)C [Example 7-35]" category=one
compound="Cc1[nH]c2nc(C(F)(F)F)nn2c(=O)c1C(C)C [Example 7-32]" category=one
compound="COC(=O)Cc1c(C)[nH]c2nc(C(=O)OC)nn2c1=O [Example 7-15]" category=three
compound="CCc1c(C)[nH]c2nc(N)nn2c1=O [Example 7-3]" category=two
compound="Cc1nc2[nH]c(-c3ccoc3)cc(=O)n2n1 [Example 7-40]" category=two
compound="Cc1nc2[nH]c(C3CCC3)cc(=O)n2n1 [Example 7-62]" category=three
compound="Cc1nc2[nH]c(-c3ccccn3)cc(=O)n2n1 [Example 7-43]" category=two
compound="Cc1[nH]c2nc(C3CCC3)nn2c(=O)c1C(C)C [Example 7-19]" category=three
compound="Cc1[nH]c2nc(Cl)nn2c(=O)c1C(C)C [Example 7-34]" category=one
compound="Cc1nc2[nH]c(C(F)(F)F)c(F)c(=O)n2n1 [Example 7-65]" category=two
compound="Cc1[nH]c2nc(-c3ccccc3Cl)nn2c(=O)c1C(C)C [Example 7-26]" category=three
compound="CCc1c(-c2ccccc2)[nH]c2nc(C)nn2c1=O [Example 7-20]" category=one
compound="CCc1c(C)[nH]c2nc(C(F)(F)F)nn2c1=O [Example 7-9]" category=one
compound="Cc1nc2[nH]c(-c3ccc(F)cc3)cc(=O)n2n1 [Example 7-39]" category=one
compound="Cc1nc2[nH]c(C3CC3)c(C)c(=O)n2n1 [Example 7-64]" category=three
compound="Cc1nc2[nH]c(C(F)(F)F)cc(=O)n2n1 [Example 7-11]" category=two
compound="Cc1nc2[nH]c(C3CCC3)c(C)c(=O)n2n1 [Example 7-68]" category=two
compound="CCc1[nH]c2nc(C)nn2c(=O)c1C [Example 7-47]" category=two
compound="Cc1nc2[nH]c(C)c(C)c(=O)n2n1 [Example 7-7]" category=two
compound="COc1c(C(F)(F)F)[nH]c2nc(C)nn2c1=O [Example 7-42]" category=two
compound="Cc1nc2[nH]c(-c3ccccc3F)cc(=O)n2n1 [Example 7-53]" category=two
compound="Cc1cc(=O)n2nc(-c3ccncc3)nc2[nH]1 [Example 7-10]" category=one
compound="CCc1c(C(F)(F)F)[nH]c2nc(C)nn2c1=O [Example 7-60]" category=one
compound="Cc1nc2[nH]c(C)c(C(C)C)c(=O)n2n1 [Example 7-21]" category=one
